All values here come from PubChem BioAssay (NCI).

- System: SK-MEL-28 melanoma
- protocol: NCI tumour cell line growth inhibition, 48 h
Overview of reported TGI across a group of molecules:

Worked examples follow.
In [3]: df
Out[3]:
                                   molecule  observed_measurement
0              O=S1(=O)COc2ccccc2-c2ncncc21              > 100 µM
1  CC(=O)N(/N=C\c1ccc([N+](=O)[O-])cc1)c1ccccc1              > 100 µM
2  CCC(C)[C@H]1C(=O)N=C(N)N1C(=O)OCc1ccccc1 (stereo not given in full)              > 100 µM
3   O=C(O)c1ccc([N+](=O)[O-])c(P(=O)(O)O)c1              > 100 µM

Now look at this entry.
q: Reported TGI, molecule COc1c(Nc2ncc(Cl)c(N[C@@H]3[C@H]4C=CC(C4)[C@@H]3C(N)=O)n2)ccc2c1CC[C@@H](N1CCOCC1)CC2 : ____
a: 17.7 µM

----------
- Tested on: SR leukemia
- protocol: NCI tumour cell line growth inhibition, 48 h
Overview of reported TGI across a group of compounds:

Worked examples follow.
>>> df
                                   compound  readout_name  observed_measurement
0  Cn1c(=O)c2[nH]c(/N=N\n3ccc4ccccc43)nc2n(C)c1=O           TGI              > 100 µM
1  CC1=NN(c2cccc(Cl)c2)C(=N/c2nc3ccccc3s2)/C1=C\C=C\c1ccccc1           TGI               25.9 µM
2            Cc1cc(=O)cc2sc3cc(Cl)ccc3nc1-2           TGI               10.3 µM
3  CC(C)[C@@H]1NC(=O)[C@]2(C)CSC(=N2)c2csc(n2)CNC(=O)C[C@@H](/C=C/CCS)OC1=O           TGI              > 100 µM
4  O=S1c2ccccc2N=C(c2ccc3ccccc3c2)CC1c1ccccc1 (configuration not stated)           TGI               63.8 µM
5  O=c1oc2ccccc2c(-c2ccc(O)cc2)c1Oc1ccc(Cl)cc1           TGI               51.9 µM
6  O=[N+]([O-])c1ccccc1S(=O)(=O)c1ccccc1[N+](=O)[O-]           TGI              > 100 µM
7  CCOC(=O)C(C)OC(=O)c1ccc(C)cc1 (configuration not stated)           TGI              > 100 µM
8          COc1cc(O)c2c(=O)c3ccccc3n(C)c2c1           TGI              > 100 µM
9  NC(=O)Cc1ccccc1Oc1nccc(-c2c(-c3ccc(F)cc3)ncn2C2CCNCC2)n1           TGI               > 25 µM

q: Reported TGI, compound COC1=C(C)C(=O)C2C(C1=O)C(c1ccc(OC)c(OC)c1)[C@H]2C (some centres not stated) : ____
a: > 100 µM

q: Reported TGI, compound NC1=NN(c2ccccc2)C(=O)C1C(=O)C(=O)NC1C2CC3CC(C2)CC1C3 (configuration not stated) : ____
a: > 100 µM

q: Reported TGI, compound O=C(/C=C/c1ccccc1O)c1ccccc1 : ____
a: 5.8 µM

q: Reported TGI, compound COc1cc(S(=O)(=O)N/N=C/C=C/c2ccccc2)c(OC)cc1NC(C)=O : ____
a: > 100 µM

q: Reported TGI, compound CCOC(=O)N/N=C/C1=NN(C(=O)OCC)S(=O)C1C (configuration not stated) : ____
a: > 100 µM

q: Reported TGI, compound O=C(c1ccc(F)c(F)c1Nc1ccc(I)cc1F)N1CC(O)([C@H]2CCCCN2)C1 : ____
a: 17.8 µM

q: Reported TGI, compound CN(C)c1cc2c(cc1Sc1nc3c(N)nccc3n1CCNCC(C)(C)C)OCO2 : ____
a: 12.2 µM

q: Reported TGI, compound O=C(CC(=O)C(=O)CC(=O)OCc1ccccc1)OCc1ccccc1 : ____
a: > 100 µM

q: Reported TGI, compound CCOC(=O)c1c(Nc2ccccc2)sc2cccnc12 : ____
a: 59.6 µM

----------
- System: SNB-75 CNS
- protocol: NCI tumour cell line growth inhibition, 48 h; in the data active = GI50 below about 0.43 µM; inactive = the rest
Just give me one of these, please: active, inactive

>>> df
                                   molecule  qualitative_label
0  CCOc1ccc(/C=N/Nc2cc(C)nc3ccc(Cl)cc23)cc1           inactive

q: Please let me know the test result on file for COc1ccc(Nc2nc(NCc3ccccc3)c3ccccc3n2)cc1 .
a: inactive

q: Please let me know the test result on file for Cc1nc(NC(=O)COc2cccc(/C=C3\COc4ccccc4C3=O)c2)sc1C .
a: inactive

q: Please let me know the test result on file for Cc1ccccc1NC(=O)N/C(N)=N/c1nc2ccccc2s1 .
a: active

q: Please let me know the test result on file for CCCCN(CCCC)c1cc(C(=O)CCCCCN)c2ccccc2n1 .
a: inactive

q: Please let me know the test result on file for NCC(=O)Nc1ccc(-n2nc(C(F)(F)F)cc2-c2ccc3c(ccc4ccccc43)c2)cc1 .
a: inactive

q: Please let me know the test result on file for O=C1OCC2=C1C(c1cccc([N+](=O)[O-])c1)c1cc3c(cc1N2CCO)CCC3 (configuration not stated) .
a: active

----------
- Test system: TK-10 renal
- protocol: NCI tumour cell line growth inhibition, 48 h
readout name: TGI

molecule	TGI
NC(N)=NS(=O)(=O)c1ccc(Nc2c3ccccc3nc3ccc(C(=O)Nc4ccc(S(N)(=O)=O)cc4)cc23)cc1	> 100 µM

q: Reported TGI, molecule COc1cccc(C2=NN(C(C)=O)C(c3cc(OC)c(OC)c(OC)c3)C2)c1 (configuration not stated) : ____
a: > 100 µM

q: Reported TGI, molecule CC(=O)N(/N=C\c1ccc([N+](=O)[O-])cc1)c1ccccc1 : ____
a: > 100 µM

q: Reported TGI, molecule CN(C)c1cc2c(Nc3ccc4nc(Cc5ccccc5)[nH]c4c3)ncnc2cn1 : ____
a: > 25 µM

q: Reported TGI, molecule O=C(/C=C/c1ccccc1Cl)c1ccc(O)cc1 : ____
a: 32.4 µM

----------
- Test system: CCRF-CEM leukemia
- protocol: NCI tumour cell line growth inhibition, 48 h
readout name: TGI

Worked examples follow.
>>> df
                                   compound  readout_name  observed_measurement
0                       O=P(O)(O)OP(=O)(O)O           TGI              > 100 µM
1                   S=c1cn[nH]c2ccc(Br)cc12           TGI              > 100 µM
2  CCOC(=O)CCC(NC(=O)N1CCN(c2c(C)nc(C)[nH]c2=O)CC1)C(=O)OCC (stereo unspecified)           TGI              > 100 µM
3          Cc1oncc1C(=O)Nc1ccc(C(F)(F)F)cc1           TGI              > 100 µM
4  COc1cc(C2=Nc3c/c(=C\c4c(O)[nH]c5ccc(Cl)cc45)ccc3=N2)cc(OC)c1OC           TGI               8.55 µM
5  COC(=O)C(C(=O)C(=O)Nc1c(Cl)cc([N+](=O)[O-])cc1Cl)c1nc2cc(C)c(C)cc2[nH]c1=O (stereo unspecified)           TGI              > 100 µM

q: Reported TGI, compound Cc1cc(=O)cc2sc3cc(Cl)ccc3nc1-2 : ____
a: 37.5 µM

q: Reported TGI, compound NC(CCc1ccccc1)(C(=O)O)c1ccccc1 (stereo unspecified) : ____
a: > 100 µM

q: Reported TGI, compound CCOC(=O)c1ccc(-c2cccs2)n1C : ____
a: > 100 µM

q: Reported TGI, compound Brc1ccc(-c2ccc(-c3ccc(-c4ccc(Br)s4)s3)s2)s1 : ____
a: > 100 µM

q: Reported TGI, compound O=CC(O)C(O)C(O)COc1cc(CO)cc2c1C(=O)c1ccccc1C2=O (stereo unspecified) : ____
a: > 100 µM

----------
- Tested on: HCC-2998 colon
- protocol: NCI tumour cell line growth inhibition, 48 h
readout name: GI50

>>> df
                                   compound  observed_measurement
0  NC(=O)c1ncn(C2OC(CO)C(O)C2O)n1 (stereo unspecified)              > 100 µM
1  COc1cccc(C2=NN(C(C)=O)C(c3cc(OC)c(OC)c(OC)c3)C2)c1 (stereo unspecified)               2.26 µM
2               O=C(/C=C/c1ccccc1O)c1ccccc1               17.9 µM
3   COc1ccc(Nc2nc(NCc3ccccc3)c3ccccc3n2)cc1                2.9 µM

q: Reported GI50, compound COC(=O)C1=C2C3=C(C(=O)c4ccccc4C3=O)N(Cc3ccccc3)C2(OC(C)=O)C=CC1=O (stereo unspecified) : ____
a: 4.67 µM

q: Reported GI50, compound Cc1cc(N2CCOCC2)nc(N(CCNc2ccnc3cc(Cl)ccc23)Cc2ccco2)n1 : ____
a: 6.12 µM

q: Reported GI50, compound O=C(/C=C\c1cccc([N+](=O)[O-])c1)c1ccccc1 : ____
a: 2.81 µM
